biological target: Leucine aminopeptidase (Plasmodium falciparum 3D7, UniProt Q8IL11); assay: P. falciparum M17LAP inhibitors, primary screen, biochemical, fluorogenic H-Leu-NHMec substrate, 1536-well (AID 1619); assay type: functional
Sequence (Q8IL11 whole entry): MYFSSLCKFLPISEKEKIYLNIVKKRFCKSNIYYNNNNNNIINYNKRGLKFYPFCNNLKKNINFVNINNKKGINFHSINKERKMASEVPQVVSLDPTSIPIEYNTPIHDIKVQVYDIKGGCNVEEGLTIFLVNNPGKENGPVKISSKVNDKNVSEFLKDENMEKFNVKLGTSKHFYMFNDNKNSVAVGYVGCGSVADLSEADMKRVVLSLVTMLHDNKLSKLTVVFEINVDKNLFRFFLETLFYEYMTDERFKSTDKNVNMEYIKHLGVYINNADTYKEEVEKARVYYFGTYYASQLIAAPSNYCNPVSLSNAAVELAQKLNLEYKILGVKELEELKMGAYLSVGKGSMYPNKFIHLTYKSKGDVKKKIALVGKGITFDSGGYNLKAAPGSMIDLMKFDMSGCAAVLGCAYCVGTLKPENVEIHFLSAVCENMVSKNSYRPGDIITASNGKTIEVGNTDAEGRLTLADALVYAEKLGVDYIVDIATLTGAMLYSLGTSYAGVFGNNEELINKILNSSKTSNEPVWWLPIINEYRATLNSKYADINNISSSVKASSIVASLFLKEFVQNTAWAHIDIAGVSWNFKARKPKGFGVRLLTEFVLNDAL
Calls of active or inactive are those of the source.
value type: IC50

Ask: GET /values?readout=IC50&item= O=C(CSc1n[nH]c2c3ccccc3nc-2n1)Nc1ccc(S(=O)(=O)Nc2ncccn2)cc1
Reply: 28.3 µM (active)

Ask: GET /values?readout=IC50&item= O=C(Nc1c(C(=O)O)oc2ccc(Br)cc12)c1ccccc1
Reply: 5.42 µM (active)

Ask: GET /values?readout=IC50&item= O=C(O)C1CCCCC1C(=O)Nc1ccc2c(c1)OCCO2 (stereo unspecified)
Reply: 32.9 µM (active)

Ask: GET /values?readout=IC50&item= COc1ccccc1NC(=O)CC1COc2ccccc2O1 (stereo unspecified)
Reply: 5.29 µM (active)

Ask: GET /values?readout=IC50&item= COc1cccc2c(=O)n(CC(=O)N3CCCCCC3)ccc12
Reply: 17.6 µM (active)

Ask: GET /values?readout=IC50&item= O=C(O)C1CCCCC1C(=O)Nc1cccc(Cl)c1Cl (stereo unspecified)
Reply: 13.5 µM (active)

----------
Form field: IC50 (one value per entry).
target: Small ubiquitin-related modifier 1 (Homo sapiens, UniProt P63165); assay: inhibitors of SUMO1 peptide binding, dose response, biochemical, fluorescence polarization, uHTS hits (AID 624382); type: functional; conditions: read-out: IC50_Mean
Sequence (P63165 whole entry): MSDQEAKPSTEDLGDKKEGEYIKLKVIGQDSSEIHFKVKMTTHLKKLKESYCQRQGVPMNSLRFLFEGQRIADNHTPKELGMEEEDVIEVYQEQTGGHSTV
Calls of active or inactive are those of the source.

Ask: GET /values?readout=IC50&item= CN(C)CCNC(=O)c1cccc(-c2cnc3c(NC=O)cc(-c4cccs4)cn23)c1
Reply: > 66.6 µM (inactive)

Ask: GET /values?readout=IC50&item= CCC(CO)Oc1cc(NC(=O)c2ccccc2F)c2ncn(C(C)C)c2c1 (stereo unspecified)
Reply: > 66.6 µM (inactive)

----------
Molecular target: Ubiquitin-conjugating enzyme E2 N (Homo sapiens, UniProt P61088);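 also: Dose-response confirmation in a TR-FRET assay detecting UBC13-driven polyubiquitin chain formation, inhibition measured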
Sequence (P61088 whole entry): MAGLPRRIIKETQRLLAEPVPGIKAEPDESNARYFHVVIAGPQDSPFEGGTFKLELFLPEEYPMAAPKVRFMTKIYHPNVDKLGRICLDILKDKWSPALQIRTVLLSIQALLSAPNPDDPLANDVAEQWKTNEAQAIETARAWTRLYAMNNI
Format: functional
Structures can show the parent of a compound that is named as a salt. Activity calls are given as the source filed them.
Choose the fitting class; nothing outside YES (active), NO (inactive) is accepted.

Cc1c(CCOC(=O)CC23CC4CC(CC(C4)C2)C3)sc[n+]1CC(=O)c1ccc(Br)cc1 : NO
Oc1ccc2ccccc2c1CNc1ccccn1 : NO
CCN(CC)CCNC(=O)c1cc2c(=O)n(C)c3ccccc3c2s1 : NO
Cc1ccc(Nc2nc(NCCO)c3ccccc3n2)cc1C : NO
O=C(Nc1ccc(C(=O)NCCCN2CCN(c3ccc(F)cc3)CC2)cc1)C1=CSCCO1 : YES

Ask: What call does the record list for Cc1cc(Nc2ccc(Cl)cc2)nc(NCc2ccccc2)n1 ?
Reply: NO

Ask: What call does the record list for Cc1cc(N)c2cc(NC(=O)/C=C/c3ccccc3Cl)ccc2n1 ?
Reply: YES

Ask: What call does the record list for CCN1C(N(C)CCc2c[nH]c3ccccc23)=N[C@@H](c2cccc(C(F)(F)F)c2)C(C(=O)OC)=C1C ?
Reply: NO

Ask: What call does the record list for CN1CCN(CCCN2c3ccccc3Sc3ccc(C(F)(F)F)cc32)CC1 ?
Reply: NO

Ask: What call does the record list for OC(c1cc(C(F)(F)F)nc2c(C(F)(F)F)cccc12)C1CCCCN1 (centres undefined) [MEFLOQUINE HYDROCHLORIDE] ?
Reply: NO

----------
target: Neurotensin receptor type 1 (Homo sapiens, UniProt P30989); assay type: functional;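 also: Image-based confirmatory dose-response assay measuring agonist activity at NTR1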;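 also: NTR1-expressing U2OS osteosarcoma cells imaged for beta-arrestin GFP spot formation; agonist potency where compounds increase beta-arrestin recruitment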
Sequence (P30989 whole entry): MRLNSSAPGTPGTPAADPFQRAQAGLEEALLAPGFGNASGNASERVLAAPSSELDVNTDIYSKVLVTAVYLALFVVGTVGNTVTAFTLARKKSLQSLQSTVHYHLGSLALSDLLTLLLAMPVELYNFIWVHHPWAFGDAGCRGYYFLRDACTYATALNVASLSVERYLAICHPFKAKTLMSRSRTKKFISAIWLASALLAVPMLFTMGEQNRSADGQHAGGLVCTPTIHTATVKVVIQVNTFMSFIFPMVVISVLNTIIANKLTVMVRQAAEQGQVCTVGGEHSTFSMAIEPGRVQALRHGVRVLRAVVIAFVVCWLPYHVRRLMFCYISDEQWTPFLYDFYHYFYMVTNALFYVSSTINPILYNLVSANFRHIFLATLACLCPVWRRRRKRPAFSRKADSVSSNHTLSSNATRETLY
Calls of active or inactive are those of the source.
Choose the fitting class; nothing outside 1 (yes) for active, 0 (no) for inactive is accepted.

Look over these answered cases.
Cc1cc(F)ccc1S(=O)(=O)Nc1ccccc1C(=O)Nc1ccccc1-c1nc2ccccc2[nH]1 : 0 (no)
Cc1ccc(C(=O)Nc2nnc(NC(=S)Nc3ccccc3)s2)cc1 : 1 (yes)
O=C(N/N=C/c1ccc(OC(=O)c2ccccc2Cl)cc1)c1ccc(O)cc1 : 1 (yes)

Now consider the entry below.
Ask: What call does the record list for CCc1ccc2c(c1)/C(=C/C(=O)c1cccs1)C(=O)N2 ?
Reply: 1 (yes)

----------
biological target: Heat shock factor protein 1 (Mus musculus, UniProt P38532); test: HSF1 potentiators in luciferase reporter cells, confirmation, cell-based, NIH3T3, luminescence, dose retest (AID 435004); assay type: functional;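 also: stress induced by proteasome inhibitor MG132 added 30 min after compound; luciferase reporter driven by HSF1 response element in NIH3T3 cells; actives raise luminescence as potentiators of the MG132 stress response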
Sequence (P38532 whole entry): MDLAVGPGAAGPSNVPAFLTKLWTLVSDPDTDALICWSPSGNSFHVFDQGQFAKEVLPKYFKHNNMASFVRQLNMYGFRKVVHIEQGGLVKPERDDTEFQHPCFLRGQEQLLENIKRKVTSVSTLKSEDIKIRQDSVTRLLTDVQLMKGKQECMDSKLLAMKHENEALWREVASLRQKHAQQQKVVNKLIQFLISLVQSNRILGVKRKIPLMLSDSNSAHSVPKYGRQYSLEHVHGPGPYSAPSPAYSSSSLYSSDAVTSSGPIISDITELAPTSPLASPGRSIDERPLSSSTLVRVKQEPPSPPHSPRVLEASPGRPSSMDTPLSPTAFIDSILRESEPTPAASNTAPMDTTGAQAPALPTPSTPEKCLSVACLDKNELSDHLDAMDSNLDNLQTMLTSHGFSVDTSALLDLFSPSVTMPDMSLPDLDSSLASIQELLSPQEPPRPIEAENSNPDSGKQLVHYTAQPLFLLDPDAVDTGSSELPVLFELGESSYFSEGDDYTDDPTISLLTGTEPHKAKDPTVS
Activity calls are given as the source filed them.
Choose the fitting class; nothing outside active, inactive is accepted.

Look over these answered cases.
CC1SC(c2ccc(Cl)cc2)NC1=O (stereo unspecified) : inactive
CCN(CC)C(=O)Oc1ccc(Br)cc1C(=O)Nc1ccc(F)cc1F : inactive
Cc1nc(SCC(=O)c2ccccc2)c(C#N)c(-c2ccco2)c1C(=O)NCc1ccco1 : active
CCc1ccc(NC(=O)CSC2=C(C#N)C(c3ccc4c(c3)OCO4)CC(=O)N2)cc1 (stereo unspecified) : inactive
Cc1ccc(OC(=O)c2ccc(C)c(C)c2)cn1 : inactive
O=C(Cc1ccc([N+](=O)[O-])cc1)N1N=C(C2CC2)CC1(O)C(F)(F)F (stereo unspecified) : inactive
Cc1ccc(C(=O)/C=C/c2cc(Br)cc(Br)c2O)o1 : active
Cn1c(SCc2ccccc2C#N)nc2ccccc2c1=O : inactive

Ask: What call does the record list for O=[N+]([O-])c1ccc(N2CCCCCC2)c([N+](=O)[O-])c1 ?
Reply: inactive

Ask: What call does the record list for O=C(CNS(=O)(=O)c1ccc(Br)s1)NCc1ccccc1 ?
Reply: inactive

----------
Form field: CC50 (one value per entry).
experiment: A Cell Based Secondary Assay To Explore Cytotoxicity of Compounds that Sensitize Mycobacterium Tuberculosis to Beta-Lactam Antibiotics.; assay type: functional
Active and inactive are the calls of the source.

Record excerpt, results attached:
O=C(C1=C[C@@H](c2ccc(Br)cc2)C[C@@H](OCc2ccc(CO)cc2)O1)N1CCN(Cc2ccc3c(c2)OCO3)CC1 : > 40 µM (active)
Cn1nnnc1Sc1ncnc2scc(-c3ccccc3)c12 : 30 µM (active)
Cc1ccc(O)c(-c2cc(-c3ccccc3F)[nH]n2)c1 : > 40 µM (active)

Consider now this further compound.
Ask: GET /values?readout=CC50&item= Cc1cc(NC(=O)/C=C/c2ccccc2Cl)n(-c2nc3ccccc3[nH]2)n1
Reply: 14.5 µM (active)

----------
target: Sentrin-specific protease 8 (Homo sapiens); type: functional;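 also: luminescence read-out of SENP8 inhibition, dose-response confirmation following an ultra-high-throughput screen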
Sequence (Q96LD8 whole entry): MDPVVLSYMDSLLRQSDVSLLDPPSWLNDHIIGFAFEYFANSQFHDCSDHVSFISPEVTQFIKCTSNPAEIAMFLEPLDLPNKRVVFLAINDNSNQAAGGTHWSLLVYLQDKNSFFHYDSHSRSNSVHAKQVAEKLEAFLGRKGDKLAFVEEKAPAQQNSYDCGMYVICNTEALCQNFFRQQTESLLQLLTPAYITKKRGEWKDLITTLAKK
Calls of active or inactive are those of the source.
Choose the fitting class; nothing outside yes = active, no = inactive is accepted.

Look over these answered cases.
CCC(C)NC(=O)c1c(N)n(CCCOC)c2nc3ccccc3nc12 (stereo not drawn) : yes
NC(=NOC(=O)c1ccc(Cl)cc1Cl)c1ccc(Cl)cc1 : no

Ask: What call does the record list for Nc1nc2ccccc2n1/N=C/c1ccc(Br)cc1 ?
Reply: yes

Ask: What call does the record list for N=C1/C(=N\Nc2ccccc2F)C(=O)NN1c1ccccc1 ?
Reply: no

Ask: What call does the record list for Cc1ccc(O)c(-c2cc(-c3ccccc3F)[nH]n2)c1 ?
Reply: yes

Ask: What call does the record list for C=C(C)c1sc(-c2ccc(Cl)cc2)nc1C ?
Reply: yes

Ask: What call does the record list for COc1ccc(-c2cc3ccccc3[nH]2)cc1 ?
Reply: yes

Ask: What call does the record list for Cc1ccccc1-c1nc(-c2ccc(Br)o2)no1 ?
Reply: yes

----------
Form field: IC50 (one value per entry).
target: Bcl-2-related protein A1 (Mus musculus, UniProt Q07440); type: functional;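 also: confirmatory dose–response counterscreen on Bfl-1, used to check hits from a UBC13 polyubiquitin inhibitor campaign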
Sequence (Q07440 whole entry): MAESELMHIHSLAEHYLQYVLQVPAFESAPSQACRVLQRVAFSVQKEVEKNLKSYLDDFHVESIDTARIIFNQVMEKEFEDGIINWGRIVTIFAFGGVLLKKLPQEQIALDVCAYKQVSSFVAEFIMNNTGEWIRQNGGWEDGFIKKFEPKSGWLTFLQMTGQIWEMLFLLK
Calls of active or inactive are those of the source.

CCCS(=O)(=O)c1ncc(Cl)c(C(=O)Nc2ccc(S(=O)(=O)Nc3ncccn3)cc2)n1 : > 20 µM (inactive)
Cc1cc(N)c2cc(NC(=O)/C=C/c3ccccc3Cl)ccc2n1 : 18.2 µM (active)
O=C(Nc1ccc(C(=O)NCCCN2CCN(c3ccc(F)cc3)CC2)cc1)C1=CSCCO1 : > 20 µM (inactive)
CCc1cccc2c(C(=O)C(NC(C)CC)c3ccccc3)c[nH]c12 (stereo not given) : > 20 µM (inactive)

Ask: GET /values?readout=IC50&item= Cc1nn(CC(=O)NCCCN2CCC(Cc3ccccc3)CC2)c(=O)c2cc(-c3ccccc3)nn12
Reply: > 20 µM (inactive)

----------
biological target: Sentrin-specific protease 7 (Homo sapiens, UniProt Q9BQF6); assay type: functional;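 also: Luminescence-based dose-response confirmation of ultra-high-throughput screening hits, measuring inhibition of SENP7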
Sequence (Q9BQF6 whole entry): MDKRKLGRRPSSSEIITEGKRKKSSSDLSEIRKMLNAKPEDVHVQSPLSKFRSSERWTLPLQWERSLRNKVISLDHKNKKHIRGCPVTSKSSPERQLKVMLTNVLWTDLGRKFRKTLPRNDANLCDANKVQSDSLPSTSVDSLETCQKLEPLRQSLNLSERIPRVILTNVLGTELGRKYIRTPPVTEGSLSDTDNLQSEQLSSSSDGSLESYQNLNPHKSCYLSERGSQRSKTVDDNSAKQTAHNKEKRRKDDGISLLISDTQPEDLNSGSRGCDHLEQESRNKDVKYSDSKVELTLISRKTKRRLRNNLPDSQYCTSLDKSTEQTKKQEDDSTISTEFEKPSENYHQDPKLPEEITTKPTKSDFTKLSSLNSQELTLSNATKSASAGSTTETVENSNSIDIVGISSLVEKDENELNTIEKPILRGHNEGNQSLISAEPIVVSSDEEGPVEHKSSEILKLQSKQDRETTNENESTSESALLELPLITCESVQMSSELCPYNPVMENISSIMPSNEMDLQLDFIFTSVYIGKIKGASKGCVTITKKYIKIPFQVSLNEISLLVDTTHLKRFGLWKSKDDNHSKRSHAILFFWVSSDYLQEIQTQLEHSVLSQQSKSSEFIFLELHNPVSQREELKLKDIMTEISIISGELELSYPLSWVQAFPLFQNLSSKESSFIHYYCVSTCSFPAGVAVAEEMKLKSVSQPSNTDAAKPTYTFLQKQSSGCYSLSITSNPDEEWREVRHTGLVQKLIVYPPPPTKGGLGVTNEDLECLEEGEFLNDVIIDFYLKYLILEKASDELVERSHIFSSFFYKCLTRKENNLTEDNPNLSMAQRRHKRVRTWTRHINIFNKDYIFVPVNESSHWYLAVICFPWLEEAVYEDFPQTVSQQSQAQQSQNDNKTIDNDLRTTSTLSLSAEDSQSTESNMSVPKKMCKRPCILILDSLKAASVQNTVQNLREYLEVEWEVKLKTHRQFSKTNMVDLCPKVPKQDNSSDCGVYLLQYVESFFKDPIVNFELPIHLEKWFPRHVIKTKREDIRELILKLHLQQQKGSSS
Active and inactive are the calls of the source.
Form field: IC50 (one value per entry).

NC(=NOC(=O)c1ccc(Cl)cc1Cl)c1ccc(Cl)cc1 : 9.34 µM (active)
C=C(C)c1sc(-c2ccc(Cl)cc2)nc1C : 6.67 µM (active)
CCC(C)NC(=O)c1c(N)n(CCCOC)c2nc3ccccc3nc12 (stereo not drawn) : 1.36 µM (active)
Cc1ccc(O)c(-c2cc(-c3ccccc3F)[nH]n2)c1 : 3.4 µM (active)
N=C1/C(=N\Nc2ccccc2F)C(=O)NN1c1ccccc1 : 2.52 µM (active)
Cc1ccccc1-c1nc(-c2ccc(Br)o2)no1 : 4.23 µM (active)

Ask: GET /values?readout=IC50&item= COc1ccc(-c2cc3ccccc3[nH]2)cc1
Reply: 18.2 µM (active)

Ask: GET /values?readout=IC50&item= Nc1nc2ccccc2n1/N=C/c1ccc(Br)cc1
Reply: 4.21 µM (active)
